Format: in vivo, human
Settings: male, human, peripheral blood mononuclear cells (hPBMCs), po, 600 mg
Kindly state MRT last for each of the entries shown.
The reply should be a number in h, with the unit left off.

Can you look up the measured MRT last of "Cc1cn([C@H]2C[C@H](N=[N+]=[N-])[C@@H](CO)O2)c(=O)[nH]c1=O" for me? 4.94

Given the molecule Cc1cn([C@H]2C[C@H](N=[N+]=[N-])[C@@H](CO[P@](=O)(O)O[P@](=O)(O)OP(=O)(O)O)O2)c(=O)[nH]c1=O [AZT-TP, 5′-AZT triphosphate] , what is its reported MRT last? 3.87
